Reference for the values: paper PMC9482650

target: Inadl_4, Q8NI35; assay: holdup assay; set-up: key: below the threshold = too weak to quantify, mostly under pKd 3.1 to 4; settings: plain residues with an end cap or a label only (N-terminal biotin on a linker: ado-ado)
Sequence (Q8NI35 547-651): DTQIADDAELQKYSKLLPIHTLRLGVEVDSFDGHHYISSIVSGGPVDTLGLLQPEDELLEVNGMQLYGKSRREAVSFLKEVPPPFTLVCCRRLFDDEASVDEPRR
reported property: pKd

{"columns": ["binder", "observed result"],
 "data": [
  ["DDPSTAETVL [ABCA7, Q8IZY2]", "below the threshold"],
  ["PKRSFIESNV [TANC1, Q9C0D5]", "below the threshold"],
  ["IPLDGETEEL [MYOZ1, Q9NP98]", "below the threshold"],
  ["TPPAAKKSRI [BAZ1A, Q9NRL2]", "below the threshold"],
  ["IKAIVDLTGL [TRAF2, Q12933]", "below the threshold"],
  ["LRSPRTPSEV [OR10G3, Q8NGC4]", "below the threshold"]
]}
